Test system: Staphylococcus aureus ATCC 25923
Experiment: ≥ marks a high value that may be exact or a test limit, other limits are often not marked, values filed in µg/mL are converted to µM
metricName: MIC (µM)
One number for each entry, in µM.

[[record]]
querysmiles = "CC[C@H](C)[C@H](NC(=O)[C@H](CCCCN)NC(=O)[C@H](C)NC(=O)[C@H](C)NC(=O)[C@H](CC(C)C)NC(=O)[C@H](CCCN=C(N)N)NC(=O)[C@H](CC(C)C)NC(=O)[C@H](C)NC(=O)[C@H](CC(C)C)NC(=O)[C@H](CCCCN)NC(=O)[C@H](CC(C)C)NC(=O)[C@H](CCCCN)NC(=O)[C@H](CCCCN)NC(=O)[C@H](CCSC)NC(=O)[C@@H]1CCCN1)C(=O)N[C@@H](C)C(=O)N1CCC[C@H]1C(=O)N[C@H](C(=O)N[C@@H](Cc1c[nH]c2ccccc12)C(=O)O)C(C)C"
measuredvalue = 8


Req: Given the compound CC[C@H](C)[C@H](NC(=O)[C@H](CCCN=C(N)N)NC(=O)[C@H](Cc1c[nH]c2ccccc12)NC(=O)[C@H](CCCCN)NC(=O)[C@@H](N)CCCN=C(N)N)C(=O)N[C@H](C(=O)N[C@H](C(=O)N[C@H](C(=O)N[C@@H](CCCN=C(N)N)C(=O)N[C@H](C(=O)N[C@@H](CCCN=C(N)N)C(=O)N[C@@H](CCCN=C(N)N)C(N)=O)C(C)C)[C@@H](C)CC)C(C)C)C(C)C , what is its reported MIC?
Resp: 128

###

System: Staphylococcus aureus ATCC 25923
Please use Satisfied for MIC under 8 µM and Not satisfied for everything else, ties included.

Would you please look over these solved cases?
[[record]]
querysmiles = "CSCC[C@H](NC(=O)[C@H](CCCCN)NC(=O)[C@@H](NC(=O)[C@H](CCC(=O)O)NC(=O)[C@H](CCCCN)NC(=O)[C@H](CCCCN)NC(=O)[C@H](CCCCN)NC(=O)[C@H](CCCCN)NC(=O)[C@H](CC(C)C)NC(=O)[C@H](CCSC)NC(=O)[C@@H](N)CCC(=O)O)C(C)C)C(=O)N[C@@H](CCC(=O)O)C(=O)N[C@@H](CCCN=C(N)N)C(=O)N[C@@H](CCCCN)C(=O)N[C@H](C(=O)O)[C@@H](C)O"
assignedclass = "Not satisfied"

[[record]]
querysmiles = "CC(C)C[C@H](NC(=O)[C@H](CCCN=C(N)N)NC(=O)[C@H](CCCCN)NC(=O)[C@H](Cc1c[nH]c2ccccc12)NC(=O)[C@@H](NC(=O)[C@H](CCCCN)NC(=O)[C@H](CCCCN)NC(=O)[C@H](CCCN=C(N)N)NC(=O)[C@H](CC(C)C)NC(=O)[C@H](CCCN=C(N)N)NC(=O)[C@@H](N)CCCN=C(N)N)[C@@H](C)O)C(=O)N[C@@H](Cc1c[nH]c2ccccc12)C(N)=O"
assignedclass = "Not satisfied"

[[record]]
querysmiles = "C[C@@H]1NC(=O)[C@@H](N)CSSC[C@@H](C(=O)N[C@@H](CCCN=C(N)N)C(=O)N[C@@H](Cc2c[nH]c3ccccc23)C(=O)N[C@@H](Cc2c[nH]c3ccccc23)C(=O)N[C@@H](Cc2c[nH]c3ccccc23)C(=O)N[C@@H](CCCN=C(N)N)C(=O)N[C@@H](CCCN=C(N)N)C(N)=O)NC(=O)[C@H](Cc2ccccc2)NC(=O)[C@H](Cc2ccc(O)cc2)NC(=O)[C@H](CO)NC1=O"
assignedclass = "Satisfied"

[[record]]
querysmiles = "CC(C)C[C@H](NC(=O)[C@H](CC(C)C)NC(=O)[C@H](CCCCN)NC(=O)[C@H](CCCCN)NC(=O)[C@H](CC(C)C)NC(=O)[C@H](CO)NC(=O)[C@H](CCCCN)NC(=O)[C@H](CC(C)C)NC(=O)[C@@H](N)Cc1ccccc1)C(N)=O"
assignedclass = "Not satisfied"

[[record]]
querysmiles = "CC[C@H](C)[C@H](NC(=O)[C@H](CCCN=C(N)N)NC(=O)[C@@H](N)Cc1c[nH]c2ccccc12)C(=O)N[C@@H](CCCN=C(N)N)C(=O)N1CCC[C@H]1C(=O)N[C@@H](CCCN=C(N)N)C(=O)N1CCC[C@H]1C(=O)N1CCC[C@H]1C(=O)N[C@@H](CCCN=C(N)N)C(=O)N[C@@H](CC(C)C)C(=O)N1CCC[C@H]1C(=O)N[C@@H](CCCN=C(N)N)C(=O)N1CCC[C@H]1C(=O)N[C@@H](CCCN=C(N)N)C(=O)N1CCC[C@H]1C(=O)N[C@@H](CCCN=C(N)N)C(=O)O"
assignedclass = "Not satisfied"


Req: Please determine if NCCCC[C@H](NC(=O)[C@H](CCCCN)NC(=O)[C@H](Cc1c[nH]c2ccccc12)NC(=O)[C@H](Cc1c[nH]c2ccccc12)NC(=O)[C@H](CCCN=C(N)N)NC(=O)[C@H](CCCCN)NC(=O)[C@@H](N)Cc1c[nH]c2ccccc12)C(=O)N[C@@H](Cc1c[nH]c2ccccc12)C(=O)N[C@@H](CCCN=C(N)N)C(=O)O is below 8 µM in terms of MIC.
Resp: Satisfied

Req: Please determine if CC[C@H](C)[C@H](NC(=O)[C@H](CC(N)=O)NC(=O)[C@H](Cc1ccccc1)NC(=O)[C@H](CCSC)NC(=O)[C@H](CC(N)=O)NC(=O)[C@@H](N)CCC(=O)O)C(=O)N[C@@H](CCCCN)C(=O)N[C@@H](CO)C(=O)N[C@@H](CO)C(=O)N[C@H](C(=O)N[C@@H](CCC(=O)O)C(=O)N[C@@H](CO)C(=O)N[C@@H](CC(=O)O)C(=O)N[C@@H](CO)C(=O)N[C@@H](Cc1ccccc1)C(=O)N[C@@H](Cc1c[nH]c2ccccc12)C(=O)NCC(=O)O)C(C)C is below 8 µM in terms of MIC.
Resp: Not satisfied

Req: Please determine if CC(C)C[C@H](NC(=O)[C@H](CCCN=C(N)N)NC(=O)[C@H](Cc1c[nH]c2ccccc12)NC(=O)[C@H](CCCN=C(N)N)NC(=O)[C@@H](NC(=O)[C@H](CCCN=C(N)N)NC(=O)[C@H](Cc1c[nH]c2ccccc12)NC(=O)[C@H](CCCN=C(N)N)NC(=O)[C@H](CC(C)C)NC(=O)[C@H](CCCN=C(N)N)NC(=O)[C@@H](N)Cc1c[nH]c2ccccc12)[C@@H](C)O)C(=O)N[C@@H](CCCN=C(N)N)C(N)=O is below 8 µM in terms of MIC.
Resp: Satisfied

Req: Please determine if NC(=O)[C@H](CCCN=C(N)N)NC(=O)[C@H](CCCN=C(N)N)NC(=O)[C@H](Cc1c[nH]c2ccccc12)NC(=O)[C@H](Cc1c[nH]c2ccccc12)NC(=O)[C@H](CCCN=C(N)N)NC(=O)[C@H](Cc1c[nH]c2ccccc12)NC(=O)[C@H](Cc1c[nH]c2ccccc12)NC(=O)[C@H](CCCN=C(N)N)NC(=O)[C@H](Cc1c[nH]c2ccccc12)NC(=O)[C@H](CCCN=C(N)N)NC(=O)[C@H](CCCN=C(N)N)NC(=O)[C@H](CCCN=C(N)N)NC(=O)[C@@H](N)CCCN=C(N)N is below 8 µM in terms of MIC.
Resp: Not satisfied

###

Below are molecules with their MIC as measured on Escherichia coli ATCC 25922.
One number for each entry, in µM.

Worked examples follow.
[[record]]
querysmiles = "CC(C)C[C@H](NC(=O)[C@H](CCCN=C(N)N)NC(=O)[C@@H](N)CCCCN)C(=O)N[C@@H](CCCN=C(N)N)C(=O)N[C@@H](CCCN=C(N)N)C(=O)N[C@H](C(=O)N[C@@H](Cc1c[nH]c2ccccc12)C(=O)N[C@@H](CCCN=C(N)N)C(=O)N[C@@H](CCCN=C(N)N)C(=O)N[C@@H](Cc1c[nH]c2ccccc12)C(=O)N[C@@H](CCCN=C(N)N)C(N)=O)C(C)C"
measuredtarget = "Escherichia coli ATCC 25922"
metricname = "MIC"
readoutunit = "µM"
measuredvalue = 30

[[record]]
querysmiles = "CC(C)C[C@H](NC(=O)[C@H](CCCCN)NC(=O)[C@H](CC(C)C)NC(=O)[C@H](CC(C)C)NC(=O)[C@H](CCCCN)NC(=O)[C@H](CCCCN)NC(=O)[C@H](CC(N)=O)NC(=O)[C@H](CC(C)C)NC(=O)[C@H](CCCCN)NC(=O)[C@H](CC(C)C)NC(=O)[C@H](CC(C)C)NC(=O)[C@H](CCCCN)NC(=O)[C@H](CCCCN)NC(=O)[C@@H](N)CC(C)C)C(=O)N[C@@H](C)C(=O)NCC(=O)O"
measuredtarget = "Escherichia coli ATCC 25922"
metricname = "MIC"
readoutunit = "µM"
measuredvalue = 2.5

[[record]]
querysmiles = "CC[C@H](C)[C@H](NC(=O)[C@H](C)N)C(=O)N[C@@H](CC(C)C)C(=O)N[C@@H](CCCN=C(N)N)C(=O)N[C@@H](CCCCN)C(=O)N[C@@H](C)C(=O)N[C@H](C(=O)N[C@@H](CCCN=C(N)N)C(=O)N[C@@H](CCCN=C(N)N)C(=O)N[C@@H](CC(C)C)C(=O)N[C@H](C(=O)N[C@@H](CCCCN)C(=O)N[C@@H](CC(C)C)C(=O)N[C@H](C(=O)N[C@H](C(N)=O)C(C)C)[C@@H](C)CC)C(C)C)[C@@H](C)O"
measuredtarget = "Escherichia coli ATCC 25922"
metricname = "MIC"
readoutunit = "µM"
measuredvalue = 20

[[record]]
querysmiles = "CC(C)[C@H](NC(=O)[C@H](CCCCN)NC(=O)[C@H](C)NC(=O)[C@@H](NC(=O)[C@@H](NC(=O)[C@H](CCCN=C(N)N)NC(=O)[C@H](CCCN=C(N)N)NC(=O)[C@H](Cc1c[nH]c2ccccc12)NC(=O)[C@H](Cc1c[nH]c2ccccc12)NC(=O)[C@H](C)N)[C@@H](C)O)C(C)C)C(=O)N[C@@H](CCCN=C(N)N)C(=O)N[C@@H](CCCCN)C(N)=O"
measuredtarget = "Escherichia coli ATCC 25922"
metricname = "MIC"
readoutunit = "µM"
measuredvalue = 12.5


State recorded MIC for all listed molecules.
1. CC(C)[C@H](NC(=O)[C@H](Cc1c[nH]c2ccccc12)NC(=O)[C@H](CCCCN)NC(=O)[C@@H](N)CCCN=C(N)N)C(=O)N[C@@H](C)C(=O)N[C@@H](Cc1c[nH]c2ccccc12)C(=O)N[C@@H](CCCN=C(N)N)C(=O)N[C@@H](CC(N)=O)C(=O)N[C@@H](CCCN=C(N)N)C(=O)O
2. CC[C@H](C)[C@H](NC(=O)CN)C(=O)N[C@H](C(=O)N[C@@H](CCCCN)C(=O)NCC(=O)N[C@H](C(=O)N[C@H](C(=O)N[C@@H](CCCCN)C(=O)N[C@@H](CCCCN)C(=O)N[C@H](C(=O)N[C@H](C(=O)N[C@@H](CCCCN)C(N)=O)[C@@H](C)CC)[C@@H](C)CC)[C@@H](C)CC)[C@@H](C)CC)[C@@H](C)CC

Resp:
[98.3, 64]
